System: KB
Assay: Antiproliferative activity against human KB cells assessed as inhibition of cell growth incubated for 72 hrs by SRB assay
Format: functional, cell-based
Assay metric: log10 IC50 (log10 of the value in nM)
Scale: decimal log of IC50, IC50 in nM.

Q: What measured log10 IC50 is associated with C=CC(C)(C)c1c2c(c(O)c3c1O[C@]14C(=C[C@@H]5C[C@H]1C(C)(C)O[C@@]4(C/C=C(\C)C(=O)O)C5=O)C3=O)C=CC(C)(C)O2 on KB?
A: 2.78

Q: What measured log10 IC50 is associated with C=CC(C)(C)c1c2c(c(O)c3c1O[C@]14[C@H](C3=O)[C@@H](OC)[C@H]3C[C@H]1C(C)(C)O[C@@]4(C/C=C(\C)C(=O)O)C3=O)C=CC(C)(C)O2 on KB?
A: 3.79

Q: What measured log10 IC50 is associated with C=CC(C)(C)c1c2c(c(O)c3c1OC(C)(C)[C@H]1CCC(C)=C[C@@H]31)C(=O)C1=C[C@@H]3C[C@H]4C(C)(C)O[C@@](C/C=C(\C)C(=O)O)(C3=O)[C@@]14O2 on KB?
A: 3.08

Q: What measured log10 IC50 is associated with C=CC(C)(C)c1c2c(c(O)c3c1OC(C)(C)[C@H]1CCC(C)=C[C@@H]31)C(=O)[C@@H]1[C@@H](OC)[C@@H]3C[C@H]4C(C)(C)O[C@@](C/C=C(\C)C(=O)O)(C3=O)[C@@]14O2 on KB?
A: 3.72

Q: What measured log10 IC50 is associated with C=CC(C)(C)c1c2c(c(O)c3c1OC(C)(C)[C@H]1CCC(C)=C[C@@H]31)C(=O)C1=C[C@@H]3C[C@H]4C(C)(C)O[C@@](C/C=C(/C)C(=O)O)(C3=O)[C@@]14O2 on KB?
A: 3.26

FYI, the data here is from ChEMBL document CHEMBL5357030.
